- subject_of_test: T1, MHC class I molecule A*0201 (biotin (bound via biotin to streptavidin-coated plates))
- T1 construct: also called A2; HLA-A2
- test_protocol: iTopia affinity assay (ED50), peptide titration on plate-bound MHC
- Description: The 9 mers were tested for Peptide Binding, Off Rate and Affinity using iTopia Epitope Discovery System in accordance with the manufacturer's instructions. Briefly, 96 well microtitre plates coated with MHC molecules representing different MHC alleles are used to identify candidate peptides. […] Determinations are performed in duplicate using an ELISA plate reader and included allele specific positive controls. […]
binders and their reported EC50
Write down the numeric answer in µM and omit the unit.

{"binder": "LPSLRQLDL [5T4 9 mer peptide 71 (LPSLRQLDL)]", "EC50, µM": 5}
{"binder": "APFLASAVS [5T4 9 mer peptide 23 (APFLASAVS)]", "EC50, µM": 20}
{"binder": "LTCAYPEKM [5T4 9 mer peptide 161 (LTCAYPEKM)]", "EC50, µM": 10}

binder LAELAALNL [5T4 9 mer peptide 59 (LAELAALNL)] , EC50 observed: 2

Memo: PLADLSPFA [5T4 9 mer peptide 77 (PLADLSPFA)] , reported EC50: 2

Entry VPTDLPAYV [5T4 9 mer peptide 43 (VPTDLPAYV)] , EC50 reported as 20

Noted for AALLAGRAL [5T4 9 mer peptide 101 (AALLAGRAL)] : its EC50 reads 4

# EC50 (binder: RLDEVRAGA [5T4 9 mer peptide 65 (RLDEVRAGA)] ) is 20
